Assay: Cytotoxicity in PHH natural infection assay (Cell Counting Kit-8)
Assay type: cell-based
Settings: HBV-infected primary human hepatocytes, CCK8
measuredProperty: CC50 at 144 h

Examples with answers:
                                   compound    result
0         COCCNc1ccc2nn(-c3cccc(OC)c3)nc2c1  > 100 µM
1              Nc1ccc2nn(-c3cccc(F)c3)nc2c1  > 100 µM
2  O=C(Nc1ccc2nn(-c3ccc(Cl)cc3)nc2c1)C1CCCCO1 (centres unmarked)  > 100 µM
3        CC(C)Nc1ccc2nn(-c3ccc(Cl)cc3)nc2c1  > 100 µM

Please fill in: CC50 at 144 h reported for Fc1ccc(-n2nc3ccc(NC4CCOC4)cc3n2)cc1 (centres unmarked) = > 100 µM

====

Tested on: HBsAg
Assay: PHH natural infection assay, HBsAg (alphalisa)
Type: cell-based, HBV
Conditions: Hepatitis B virus, Hepatocyte, 72 h, read-out: HBsAg IC50
Binary call on IC50 with cut-off 3 µM: strictly below means Condition met, and equality or higher means Condition not met.

Known results for compounds:
In [3]: df
Out[3]:
                               smilesstring  assaysystem              class
0  O=C(NC(=S)Nc1ccc2nn(-c3ccc(Cl)cc3)nc2c1)C1CCCC1        HBsAg  Condition not met
1      Clc1ccc(-n2nc3ccc(NCC4CCC4)cc3n2)cc1        HBsAg  Condition not met
2       Clc1ccc(-n2nc3ccc(NCC4CC4)cc3n2)cc1        HBsAg  Condition not met
3  O=C(Nc1ccc2nn(-c3ccc(Cl)cc3)nc2c1)C1CCCC1        HBsAg      Condition met
4             COc1cccc(-n2nc3ccc(N)cc3n2)c1        HBsAg      Condition met

With those in mind, consider the next compound.
Q: Identify whether the compound O=C(CCC(F)(F)F)Nc1ccc2nn(-c3ccc(Cl)cc3)nc2c1 records IC50 below 3 µM.
Result: Condition met

====

Test system: HBsAg
Assay: PHH natural infection assay, HBsAg (alphalisa)
Type: cell-based, HBV
Conditions: Hepatitis B virus, Hepatocyte, 72 h, read-out: HBsAg IC50
Exercise: state measured pIC50 for each of the compounds provided.
Numbers only, as −log10 of the molar value.

Examples with answers:
In [3]: df
Out[3]:
                                   compound  readoutnumber
0  CC(C)Nc1ccc2nn(-c3ccc(Cl)cc3)nc2c1 [Example 30]           5.43
1  Fc1ccc(-n2nc3ccc(NCC4CCOC4)cc3n2)cc1 (centres unmarked) [Example 20]           5.25
2  O=C(Nc1ccc2nn(-c3ccc(Cl)cc3)nc2c1)C1CCCCC1 [Example 39]           5.41

Look up pIC50 for the entries below, preserving their order.
1. NC(=S)Nc1ccc2nn(-c3ccc(Cl)cc3)nc2c1 [Example 53]
2. Clc1ccc(-n2nc3ccc(Nc4nc(-c5ccccc5)cs4)cc3n2)cc1 [Example 63]
3. Fc1ccc(-n2nc3ccc(NC4CCOC4)cc3n2)cc1 (centres unmarked) [Example 21]
4. Nc1ccc2nn(-c3ccc(Cl)cc3)nc2c1 [Example 2, 2-(4-Chlorophenyl)benzotriazol-5-amine]
5. COCCNc1ccc2nn(-c3ccc(Cl)cc3)nc2c1 [Example 15]
6. CC(C)C(=O)NC(=S)Nc1ccc2nn(-c3ccc(Cl)cc3)nc2c1 [Example 57]
7. CC(Nc1ccc2nn(-c3ccc(Cl)cc3)nc2c1)C(F)(F)F (centres unmarked) [Example 32]
8. CS(=O)(=O)c1ccc(-n2nc3ccc(N)cc3n2)cc1 [Example 7]

Result:
1: 5.47; 2: 5.82; 3: 5.01; 4: 5.10; 5: 5.43; 6: 5.60; 7: 5.04; 8: 5.25

Look up pIC50 for the entries below, preserving their order.
1. CCNc1ccc2nn(-c3ccc(Cl)cc3)nc2c1 [Example 13]
2. O=C(Nc1ccc2nn(-c3ccc(F)cc3)nc2c1)C1CCCC1 [Example 43]

Result:
1: 5.89; 2: 5.09

Look up pIC50 for the entries below, preserving their order.
1. Clc1ccc(-n2nc3ccc(NC4CCCC4)cc3n2)cc1 [Example 31]
2. CNC(=O)CCNc1ccc2nn(-c3ccc(Cl)cc3)nc2c1 [Example 37]
3. O=C(NC(=S)Nc1ccc2nn(-c3ccc(Cl)cc3)nc2c1)c1ccccc1 [Example 58]

Result:
1. 5.05
2. 5.33
3. 5.93

Please fill in: pIC50 reported for Cc1csc(Nc2ccc3nn(-c4ccc(Cl)cc4)nc3c2)n1 [Example 64] = 5.85

====

System: HBeAg
Assay: PHH natural infection assay, HBeAg (alphalisa)
Format: cell-based, HBV
Details: Hepatitis B virus, Hepatocyte, 72 h, read-out: HBeAg IC50
measuredProperty: pIC50
Answers are plain numbers, as −log10 of the molar value.

Examples with answers:
In [3]: df
Out[3]:
                          smilesstring  assaysystem  readoutnumber
0     Cc1cc(N)cc2nn(-c3ccc(Cl)cc3)nc12        HBeAg           5.41
1      CCNc1ccc2nn(-c3ccc(Cl)cc3)nc2c1        HBeAg           5.80
2    COCCNc1ccc2nn(-c3cccc(Cl)c3)nc2c1        HBeAg           5.17
3  NC(=S)Nc1ccc2nn(-c3ccc(Cl)cc3)nc2c1        HBeAg           5.54

Lab note: next compound to report on.
Please fill in: pIC50 reported for Clc1ccc(-n2nc3ccc(Nc4nc(-c5ccccc5)cs4)cc3n2)cc1 = 5.87

====

Tested on: HBeAg
Test: PHH natural infection assay, HBeAg (alphalisa)
Assay type: cell-based, HBV
Details: Hepatitis B virus, Hepatocyte, 72 h, read-out: HBeAg IC50
Exercise: state measured IC50 for each of the compounds provided.
Give bare numbers, in µM.

Examples with answers:
>>> df
                                   compound  assaysystem  readingunit  readoutnumber
0  CC(C)CS(=O)(=O)c1ccc(-n2nc3ccc(N)cc3n2)cc1 [Example 10]        HBeAg           µM           5.56
1  CN(C)C(=S)Nc1ccc2nn(-c3ccc(Cl)cc3)nc2c1 [Example 61]        HBeAg           µM           1.22
2  CC(C)Nc1ccc2nn(-c3ccc(Cl)cc3)nc2c1 [Example 30]        HBeAg           µM           6.61
3  CNc1ccc2nn(-c3ccc(Cl)cc3)nc2c1 [Example 12]        HBeAg           µM           2.44
4  CN(C)c1ccc2nn(-c3ccc(Cl)cc3)nc2c1 [Example 33]        HBeAg           µM           3.71
5  Nc1ccc2nn(-c3cccc(Cl)c3)nc2c1 [Example 1, 2-(3-Chlorophenyl)benzotriazol-5-amine]        HBeAg           µM            1.8

Look up IC50 for the entries below, preserving their order.
1. CC(=O)NC(=S)Nc1ccc2nn(-c3ccc(Cl)cc3)nc2c1 [Example 55]
2. O=C(Nc1ccc2nn(-c3ccc(Cl)cc3)nc2c1)C1COCCO1 (stereo not drawn) [Example 47]
3. Fc1ccc(-n2nc3ccc(NC4CCOC4)cc3n2)cc1 (stereo not drawn) [Example 21]

Result:
[5.1, 1.84, 10.6]

====

Test system: HBsAg
Assay: PHH natural infection assay, HBsAg (alphalisa)
Assay type: cell-based, HBV
Details: Hepatitis B virus, Hepatocyte, 72 h, read-out: HBsAg IC50
Procedure: Detailed procedures regarding primary human hepatocyte (PHH) HBV natural infection assay are described as below. […] HBsAg and HBeAg were detected using alphalisa method using their specific antibodies. For HBV DNA detection, HBV DNA Quantitative Fluorescence Diagnostic Kit (Sansure Biotech Inc.) was used following the manufacture's protocol. Cytotoxicity was determined using Cell Counting Kit-8 (CCK8, Dojindo Molecular Technologies, Inc.). […]
Exercise: state measured pIC50 for each of the compounds provided.
One number for each entry, as −log10 of the molar value.

In [3]: df
Out[3]:
                                   compound  measuredproperty  readoutnumber
0  COCCS(=O)(=O)c1ccc(-n2nc3ccc(N)cc3n2)cc1 [Example 9]             pIC50           5.39
1  CCN(C)c1ccc2nn(-c3ccc(Cl)cc3)nc2c1 [Example 36]             pIC50           5.39
2  c1ccc(-n2nc3ccc(NC4CCCC4)cc3n2)cc1 [Example 16]             pIC50           5.03
3  CC(C)c1csc(Nc2ccc3nn(-c4ccc(Cl)cc4)nc3c2)n1 [Example 62]             pIC50           5.42
4  O=C(CC(F)(F)F)Nc1ccc2nn(-c3ccc(Cl)cc3)nc2c1 [Example 51]             pIC50           5.39
5  Nc1ccc2nn(-c3cccc(Cl)c3)nc2c1 [Example 1, 2-(3-Chlorophenyl)benzotriazol-5-amine]             pIC50           5.92
6  O=C(CC(F)(F)F)Nc1ccc2nn(-c3ccc(F)cc3)nc2c1 [Example 44]             pIC50           5.16
7  Clc1ccc(-n2nc3ccc(NCC4CCCO4)cc3n2)cc1 (stereo not drawn) [Example 27]             pIC50           5.22

Please fill in: pIC50 reported for O=C(Nc1ccc2nn(-c3ccc(Cl)cc3)nc2c1)C1CCCCO1 (stereo not drawn) [Example 46] = 5.57
